- System: Musca domestica L.
- assay: Contact test on non-porous tile, Musca domestica
- Type: in vivo
- assay-conditions: Musca domestica; single substance alone, 0.68 mg/ml; 48 h; read-out: Mortality %/time (h)
reported-metric: mortality at 680 µg/mL (%)
Give bare numbers, in %.

Some entries whose results are on file:
INSERT INTO assay_data (compound, reported_metric, assay_value) VALUES
  ('CCCCCCC(O)CO (stereo not drawn)', 'mortality at 680 µg/mL', 0),
  ('CCCCCCCCCCC(CO)CCCCCCCC (stereo not drawn)', 'mortality at 680 µg/mL', 20),
  ('CCCCCCCC/C=C\CCCCCCCCOC(C)=O [Oleyl acetate]', 'mortality at 680 µg/mL', 60),
  ('CCCCC(CC)COC(=O)OCC(CC)CCCC (stereo not drawn) [bis(2-ethylhexyl)-carbonate]', 'mortality at 680 µg/mL', 19),
  ('CCCCC(O)CO (stereo not drawn)', 'mortality at 680 µg/mL', 7);

Could you now look at the following compound, please?
response.value for CCCCCCCCOC(=O)OCCCCCCCC [dioctyl carbonate] (field: mortality at 680 µg/mL) = 33
